Origin of the recorded values: the supplement of paper PMC6555819

# Tested on: VDR:RXRa (NR concentration 270 nM, RXRa partner concentration 90 nM)
# ASSAY_NAME: PBM binding z-score (relative to random genomic background probes); higher = stronger binding; sequences stand for … in GC…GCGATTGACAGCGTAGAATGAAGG

- SEQ_STRING: "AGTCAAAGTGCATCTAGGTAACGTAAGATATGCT"
  PBM binding z-score: 0.567
- SEQ_STRING: "CGTCCAAGGTCAGCGGGTCAGTGAAAGCGACGTG"
  PBM binding z-score: 4.57
- SEQ_STRING: "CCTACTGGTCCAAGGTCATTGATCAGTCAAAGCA"
  PBM binding z-score: 3.79
- SEQ_STRING: "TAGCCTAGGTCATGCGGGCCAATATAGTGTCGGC"
  PBM binding z-score: 3.64
- SEQ_STRING: "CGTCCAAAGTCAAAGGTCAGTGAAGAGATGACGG"
  PBM binding z-score: 3.16
- SEQ_STRING: "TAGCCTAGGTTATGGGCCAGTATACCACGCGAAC"
  PBM binding z-score: -0.0238
- SEQ_STRING: "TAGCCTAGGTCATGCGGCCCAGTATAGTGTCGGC"
  PBM binding z-score: 1.77
- SEQ_STRING: "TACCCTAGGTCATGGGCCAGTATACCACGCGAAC"
  PBM binding z-score: 2.67
- SEQ_STRING: "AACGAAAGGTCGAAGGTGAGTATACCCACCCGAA"
  PBM binding z-score: 2.9
- SEQ_STRING: "TCTAGTTGGTCACGGAGGTCACAAACGACGGGTA"
  PBM binding z-score: 5.62
- SEQ_STRING: "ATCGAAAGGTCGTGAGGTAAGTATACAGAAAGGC"
  PBM binding z-score: 3.44
- SEQ_STRING: "AATACAGGGTCATCTTAGGCCAGAGTACGCACAG"
  PBM binding z-score: 5.31
- SEQ_STRING: "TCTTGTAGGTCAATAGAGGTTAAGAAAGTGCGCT"
  PBM binding z-score: 4.85
- SEQ_STRING: "TGTCAAAGGTCAAAGGTAACGTAAGTATCCACAC"
  PBM binding z-score: 6.2

---

Listed here: items and their measured PBM binding z-score.
# System: LXRa:RXRa (NR concentration 270 nM, RXRa partner concentration 90 nM)
# ASSAY_NAME: PBM binding z-score (relative to random genomic background probes); higher = stronger binding; sequences stand for … in GC…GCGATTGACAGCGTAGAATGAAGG

- SEQ_STRING: "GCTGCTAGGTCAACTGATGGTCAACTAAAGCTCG"
  PBM binding z-score: 3.47
- SEQ_STRING: "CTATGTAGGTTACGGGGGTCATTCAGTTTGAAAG"
  PBM binding z-score: 5.54
- SEQ_STRING: "CCGAATAGGTTACGAGGGGGCATTCAGTGCGAAT"
  PBM binding z-score: 7.98
- SEQ_STRING: "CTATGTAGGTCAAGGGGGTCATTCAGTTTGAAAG"
  PBM binding z-score: 5.9
- SEQ_STRING: "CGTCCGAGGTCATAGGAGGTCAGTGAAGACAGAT"
  PBM binding z-score: 7.86
- SEQ_STRING: "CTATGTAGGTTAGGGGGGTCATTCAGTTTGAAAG"
  PBM binding z-score: 5.66
- SEQ_STRING: "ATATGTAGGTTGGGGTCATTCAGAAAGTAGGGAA"
  PBM binding z-score: 5.41
- SEQ_STRING: "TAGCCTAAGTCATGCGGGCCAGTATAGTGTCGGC"
  PBM binding z-score: -0.396
- SEQ_STRING: "AATACAGGGTCACGAGGCCAGAGTAGGTACGAAT"
  PBM binding z-score: 6
- SEQ_STRING: "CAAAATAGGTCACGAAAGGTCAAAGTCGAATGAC"
  PBM binding z-score: 8.64
- SEQ_STRING: "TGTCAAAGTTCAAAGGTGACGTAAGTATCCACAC"
  PBM binding z-score: 6.41
- SEQ_STRING: "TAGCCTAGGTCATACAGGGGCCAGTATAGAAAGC"
  PBM binding z-score: 3.34
